Data credit: patent US7169932B2

- Test system: HIV-1
- Assay method text: Cytopathic Effect (CPE) Inhibition Assay (XTT dye reduction)
- Assay type: cell-based
- Setup conditions: Human immunodeficiency virus 1, 144 h, read-out: Ave CPE EC50 (mM)
- Description: T-cell lines, CEM-SS, and MT-2, and viruses HIV-1 RF and HIV-1 NL4–3 (pNL4–3) were obtained from the National Institutes of Health (AIDS Research and Reference Reagent Program, Bethesda, Md.). […]
Result type: EC50 (nM)

- Chemical structure: "C/C=C(/C)CNC(=O)[C@H]1N(C(=O)[C@@H](O)[C@H](Cc2ccccc2)NC(=O)c2cccc(O)c2C)CSC1(C)C"
  Measurement: 36
- Chemical structure: "Cc1ccccc1CNC(=O)[C@@H]1C[C@H](F)CN1C(=O)[C@@H](O)[C@H](Cc1ccccc1)NC(=O)c1cccc(O)c1C"
  Measurement: 500
- Chemical structure: "Cc1c(O)cccc1C(=O)N[C@@H](Cc1ccccc1)[C@H](O)C(=O)N1CSC(C)(C)[C@H]1C(=O)NCCCl"
  Measurement: 130

###

- Tested on: HIV-1 protease (Q7S) (Human immunodeficiency virus type 1 group M subtype B, UniProt P04585, Q495S)
- Construct: made in house
- Assay method text: HIV-1 Protease RET Assay
- Assay type: biochemical
- Setup conditions: Ave. Ki (nM), RET assay, Q7S enzyme, pH 4.8, 37 C
Result type: Ki (nM)

- Molecule: "Cc1ccccc1CNC(=O)[C@H]1N(C(=O)[C@@H](O)[C@H](Cc2ccccc2)NC(=O)c2ccc(F)cc2C)CSC1(C)C"
  Lt gt eq: "="
  Measurement: 0.11
- Molecule: "Cc1ccccc1CNC(=O)[C@H]1N(C(=O)[C@@H](O)[C@H](Cc2ccccc2)NC(=O)c2c(C)nn(C)c2Cl)CSC1(C)C"
  Lt gt eq: "="
  Measurement: 3.7
- Molecule: "CCCOc1cccc(CNC(=O)[C@H]2N(C(=O)[C@@H](O)[C@H](Cc3ccccc3)NC(=O)c3cccc(O)c3C)CSC2(C)C)c1"
  Lt gt eq: "="
  Measurement: 0.35
- Molecule: "CC(C)=CCNC(=O)[C@H]1N(C(=O)[C@@H](O)[C@H](Cc2ccccc2)NC(=O)c2cccc(O)c2C)CSC1(C)C"
  Lt gt eq: "<"
  Measurement: 0.1
- Molecule: "C#CCN(C)C(=O)[C@H]1N(C(=O)[C@@H](O)[C@H](Cc2ccccc2)NC(=O)c2cccc(O)c2C)CSC1(C)C"
  Lt gt eq: "="
  Measurement: 0.62
- Molecule: "C#CCNC(=O)[C@H]1N(C(=O)[C@@H](O)[C@H](Cc2ccccc2)NC(=O)c2ccc(C)c(O)c2C)CSC1(C)C"
  Lt gt eq: "="
  Measurement: 4.6
- Molecule: "COCCCC(=O)[C@H]1N(C(=O)[C@@H](O)[C@H](Cc2ccccc2)NC(=O)c2cccc(O)c2C)CSC1(C)C"
  Lt gt eq: "="
  Measurement: 0.5
- Molecule: "Cc1ccccc1CNC(=O)[C@H]1N(C(=O)[C@@H](O)[C@H](Cc2ccccc2)NC(=O)c2ccccc2C)CSC1(C)C"
  Lt gt eq: "<"
  Measurement: 0.1
- Molecule: "Cc1ccccc1CNC(=O)C1N(C(=O)[C@@H](O)[C@H](Cc2ccccc2)NC(=O)c2ccccn2)CSC1(C)C (stereo partly drawn)"
  Lt gt eq: "="
  Measurement: 19.7
- Molecule: "C=CCNC(=O)[C@H]1N(C(=O)[C@@H](O)[C@H](Cc2ccccc2)NC(=O)c2cccc(F)c2C)CSC1(C)C"
  Lt gt eq: "="
  Measurement: 1.2
- Molecule: "Cc1ccccc1CN(CCO)C(=O)[C@H]1N(C(=O)[C@@H](O)[C@H](Cc2ccccc2)NC(=O)c2cccc(O)c2C)CSC1(C)C"
  Lt gt eq: "="
  Measurement: 0.26
- Molecule: "Cc1ccccc1CNC(=O)[C@H]1N(C(=O)[C@@H](O)[C@H](Cc2ccccc2)NC(=O)c2ccsc2)CSC1(C)C"
  Lt gt eq: "="
  Measurement: 1.6

###

Listed here: items and their measured log10(EC50).
- Tested on: HIV-1
- Assay method text: Cytopathic Effect (CPE) Inhibition Assay (XTT dye reduction)
- Type: cell-based
- Setup conditions: Human immunodeficiency virus 1, 144 h, read-out: Ave CPE EC50 (mM)
Result type: log10(EC50) (log10 of the value in nM)

- Molecule: "Cc1ccccc1CNC(=O)[C@H]1N(C(=O)[C@@H](O)[C@H](Cc2ccccc2)NC(=O)c2sc(N)nc2C)CSC1(C)C [Example B15]"
  Tested on: "HIV-1"
  log10(EC50): 3.04
- Molecule: "COc1ccccc1CNC(=O)[C@H]1N(C(=O)C(O)C(Cc2ccccc2)NC(=O)c2cccc(O)c2C)CSC1(C)C (some centres unmarked) [Example A3]"
  Tested on: "HIV-1"
  log10(EC50): 2.57
- Molecule: "Cc1noc(C)c1C(=O)NC(Cc1ccccc1)C(O)C(=O)N1CSC(C)(C)C1C(=O)NCc1c(F)cccc1F (centres unmarked) [Example B25]"
  Tested on: "HIV-1"
  log10(EC50): 3.25
- Molecule: "C=C(C)CNC(=O)[C@H]1N(C(=O)[C@@H](O)[C@H](Cc2ccccc2)NC(=O)c2cccc(O)c2C)CSC1(C)C [Example A28]"
  Tested on: "HIV-1"
  log10(EC50): 1.61
- Molecule: "Cc1c(O)cccc1C(=O)N[C@@H](Cc1ccccc1)[C@H](O)C(=O)N1CSC(C)(C)[C@H]1C(=O)NC/C=C/C(F)(F)F [Example A40]"
  Tested on: "HIV-1"
  log10(EC50): 2.44
- Molecule: "Cc1ccccc1CNC(=O)[C@H]1N(C(=O)[C@@H](O)[C@H](Cc2ccccc2)NC(=O)c2cccc(F)c2C)CSC1(C)C [Example B36]"
  Tested on: "HIV-1"
  log10(EC50): 2.79
- Molecule: "Cc1ccccc1CNC(=O)[C@H]1N(C(=O)[C@@H](O)[C@H](Cc2ccccc2)NC(=O)c2cccc(N)n2)CSC1(C)C [Example B40]"
  Tested on: "HIV-1"
  log10(EC50): 3.15
- Molecule: "Cc1ccccc1CNC(=O)[C@H]1N(C(=O)[C@@H](O)[C@H](Cc2ccccc2)NC(=O)c2c(C)noc2C)CSC1(C)C [Example B10]"
  Tested on: "HIV-1"
  log10(EC50): 3.04
- Molecule: "Cc1c(O)cccc1C(=O)N[C@@H](Cc1ccccc1)[C@H](O)C(=O)N1CSC(C)(C)[C@H]1C(=O)NCc1ccc(N)cc1 [Example A16]"
  Tested on: "HIV-1"
  log10(EC50): 2.13
- Molecule: "CCCNC(=O)[C@H]1N(C(=O)[C@@H](O)[C@H](Cc2ccccc2)NC(=O)c2ccccc2C)CSC1(C)C [Example B30]"
  Tested on: "HIV-1"
  log10(EC50): 3.09
- Molecule: "Cc1ccccc1CN(CCO)C(=O)[C@H]1N(C(=O)[C@@H](O)[C@H](Cc2ccccc2)NC(=O)c2cccc(O)c2C)CSC1(C)C [Example A50]"
  Tested on: "HIV-1"
  log10(EC50): 2.35
- Molecule: "Cc1c(O)cccc1C(=O)N[C@@H](Cc1ccccc1)[C@H](O)C(=O)N1CSC(C)(C)[C@H]1C(=O)NCc1ccc(N(C)C)cc1 [Example A15]"
  Tested on: "HIV-1"
  log10(EC50): 2.11
- Molecule: "Cc1ccccc1CNC(=O)C1N(C(=O)[C@@H](O)[C@H](Cc2ccccc2)NC(=O)c2cccnc2C)CSC1(C)C (some centres unmarked) [Example B44]"
  Tested on: "HIV-1"
  log10(EC50): 2.80
